assay.target: ALV001 (Hordeum vulgare, UniProt P25250)
Sequence (P25250 29-373 limits assumed): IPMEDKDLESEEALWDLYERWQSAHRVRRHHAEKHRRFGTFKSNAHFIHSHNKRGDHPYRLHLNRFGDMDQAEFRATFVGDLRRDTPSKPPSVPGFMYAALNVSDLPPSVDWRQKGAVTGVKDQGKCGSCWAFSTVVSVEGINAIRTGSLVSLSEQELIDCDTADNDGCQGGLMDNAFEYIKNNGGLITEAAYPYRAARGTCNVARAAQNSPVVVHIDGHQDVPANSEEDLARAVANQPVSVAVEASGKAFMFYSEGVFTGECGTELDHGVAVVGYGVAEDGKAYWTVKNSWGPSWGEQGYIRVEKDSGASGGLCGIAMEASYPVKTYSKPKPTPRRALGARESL
protocol: Stabilization of ALV001 in ex vivo postprandial gastric fluid by added antioxidants/reducing/chelating agents (chromogenic activity)
Type: biochemical, barley
Design: ALV001 is the proenzyme or zymogen for Endoprotease B (Isoform 2); made in house
experimental.parameters: summary statement, concentration not given
assay.metric: stabilization (preservation of activity) of ALV001 in ex vivo gastric fluid

CSCC[C@H](N)C(=O)O [L-methionine]	did not stabilize
O=C1O[C@H]([C@@H](O)CO)C(O)=C1O [ascorbic acid]	did not stabilize
